Test system: L6
Assay: Induction of mitochondrial uncoupling in rat L6 cells assessed as oxygen consumption rate measured after 45 to 90 mins by seahorse XFe96 analyser based assay relative to control
Conditions: Mitochondria
Exercise: state measured Emax for each of the molecules provided.
Report as a plain number; the unit % is understood.

Input line: I have this molecule here, FC(F)(F)c1cccc(Nc2cnc(Nc3cccc(C(F)(F)F)c3)cn2)c1 , and I need its recorded Emax.
Output line: 140

Input line: I have this molecule here, FC(F)(F)c1ccc(Nc2cncc(Nc3ccc(C(F)(F)F)cc3)n2)cc1 , and I need its recorded Emax.
Output line: 103

Input line: I have this molecule here, Fc1cc(C(F)(F)F)ccc1Nc1nccnc1Nc1ccc(C(F)(F)F)cc1F , and I need its recorded Emax.
Output line: 164

Input line: I have this molecule here, FC(F)(F)Oc1cccc(Nc2cnc(Nc3cccc(OC(F)(F)F)c3)cn2)c1 , and I need its recorded Emax.
Output line: 101

Input line: I have this molecule here, FC(F)(F)c1cccc(Nc2nc(Nc3cccc(C(F)(F)F)c3)nc(Nc3cccc(C(F)(F)F)c3)n2)c1 , and I need its recorded Emax.
Output line: 103

* * *

System: L6
Experiment: Induction of mitochondrial uncoupling in rat L6 cells assessed as oxygen consumption rate measured after 45 to 90 mins by seahorse XFe96 analyser based assay relative to control
Settings: Mitochondria
Exercise: state measured Emax for each of the compounds provided.
Report as a plain number; the unit % is understood.

Input line: I have this compound here, Fc1cccc(Nc2nccnc2Nc2cccc(F)c2F)c1F , and I need its recorded Emax.
Output line: 108

Input line: I have this compound here, Fc1ccc(Nc2nccnc2Nc2ccc(F)cc2)cc1 , and I need its recorded Emax.
Output line: 101

Input line: I have this compound here, FC(F)(F)Oc1ccc(Nc2cncc(Nc3ccc(OC(F)(F)F)cc3)n2)cc1 , and I need its recorded Emax.
Output line: 107

Input line: I have this compound here, Fc1ccccc1Nc1nc(Nc2ccccc2F)nc(Nc2ccccc2F)n1 , and I need its recorded Emax.
Output line: 102

Input line: I have this compound here, Fc1ccc(C(F)(F)F)cc1Nc1nccnc1Nc1cc(C(F)(F)F)ccc1F , and I need its recorded Emax.
Output line: 100

Input line: I have this compound here, FC(F)(F)Oc1ccccc1Nc1nccnc1Nc1ccccc1OC(F)(F)F , and I need its recorded Emax.
Output line: 114

Input line: I have this compound here, COc1ccc(Nc2nc(Nc3ccc(OC)cc3)nc(Nc3ccc(OC)cc3)n2)cc1 , and I need its recorded Emax.
Output line: 104

Input line: I have this compound here, FC(F)(F)c1ccc(Nc2nc(Nc3ccc(C(F)(F)F)cc3)nc(Nc3ccc(C(F)(F)F)cc3)n2)cc1 , and I need its recorded Emax.
Output line: 100

Input line: I have this compound here, FC(F)(F)Oc1cccc(Nc2nccnc2Nc2cccc(OC(F)(F)F)c2)c1 , and I need its recorded Emax.
Output line: 343

Input line: I have this compound here, Fc1cccc(Nc2nccnc2Nc2cccc(F)c2)c1 , and I need its recorded Emax.
Output line: 106

Input line: I have this compound here, Fc1ccc(Nc2nccnc2Nc2ccc(F)cc2F)c(F)c1 , and I need its recorded Emax.
Output line: 109

Input line: I have this compound here, COc1ccccc1Nc1nc(Nc2ccccc2OC)nc(Nc2ccccc2OC)n1 , and I need its recorded Emax.
Output line: 103

Input line: I have this compound here, FC(F)(F)c1ccccc1Nc1nccnc1Nc1ccccc1C(F)(F)F , and I need its recorded Emax.
Output line: 104

Input line: I have this compound here, FC(F)(F)Oc1cccc(Nc2cncc(Nc3cccc(OC(F)(F)F)c3)n2)c1 , and I need its recorded Emax.
Output line: 105

Input line: I have this compound here, FC(F)(F)c1cc(Nc2cncc(Nc3cc(C(F)(F)F)cc(C(F)(F)F)c3)n2)cc(C(F)(F)F)c1 , and I need its recorded Emax.
Output line: 105

Input line: I have this compound here, FC(F)(F)Oc1ccc(Nc2cnc(Nc3ccc(OC(F)(F)F)cc3)cn2)cc1 , and I need its recorded Emax.
Output line: 102

Input line: I have this compound here, FC(F)(F)c1cc(Nc2nccnc2Nc2cc(C(F)(F)F)cc(C(F)(F)F)c2)cc(C(F)(F)F)c1 , and I need its recorded Emax.
Output line: 148

Input line: I have this compound here, COc1ccccc1Nc1nccnc1Nc1ccccc1OC , and I need its recorded Emax.
Output line: 102

Input line: I have this compound here, COc1cccc(Nc2nc(Nc3cccc(OC)c3)nc(Nc3cccc(OC)c3)n2)c1 , and I need its recorded Emax.
Output line: 103

Input line: I have this compound here, FC(F)(F)c1ccc(Nc2nccnc2Nc2ccc(C(F)(F)F)cc2)cc1 , and I need its recorded Emax.
Output line: 260

Input line: I have this compound here, FC(F)(F)c1ccc(Nc2cnc(Nc3ccc(C(F)(F)F)cc3)cn2)cc1 , and I need its recorded Emax.
Output line: 107

Input line: I have this compound here, COc1cccc(Nc2nccnc2Nc2cccc(OC)c2)c1 , and I need its recorded Emax.
Output line: 101

Input line: I have this compound here, FC(F)(F)c1cccc(Nc2nccnc2Nc2cccc(C(F)(F)F)c2)c1 , and I need its recorded Emax.
Output line: 181

Input line: I have this compound here, FC(F)(F)Oc1ccc(Nc2nccnc2Nc2ccc(OC(F)(F)F)cc2)cc1 , and I need its recorded Emax.
Output line: 258
